# Target Under Test: Furin (108-574-Tev-Flag-His) enzyme (Homo sapiens, UniProt P09958)
# Construct: Furin (108-574-Tev-Flag-His) enzyme was expressed and purified from CHO cells; TEV cleavage site (C); FLAG (C); His (C); made in house; host or cells: CHO cells
# Sequence (P09958 108-574): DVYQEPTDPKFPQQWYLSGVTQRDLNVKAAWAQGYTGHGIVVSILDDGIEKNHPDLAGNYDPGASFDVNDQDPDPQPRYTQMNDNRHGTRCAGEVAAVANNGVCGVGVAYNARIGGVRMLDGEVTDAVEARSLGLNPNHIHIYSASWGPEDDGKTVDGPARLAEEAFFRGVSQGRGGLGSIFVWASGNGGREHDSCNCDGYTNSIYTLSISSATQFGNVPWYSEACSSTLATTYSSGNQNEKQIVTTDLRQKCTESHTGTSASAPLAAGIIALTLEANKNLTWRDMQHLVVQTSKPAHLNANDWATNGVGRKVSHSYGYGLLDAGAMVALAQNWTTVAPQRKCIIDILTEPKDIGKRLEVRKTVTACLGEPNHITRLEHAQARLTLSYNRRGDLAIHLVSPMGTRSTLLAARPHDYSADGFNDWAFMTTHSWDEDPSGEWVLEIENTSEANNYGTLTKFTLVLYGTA
# Test Summary: Furin enzyme assay
# Type: biochemical
Structures can show the parent of a compound that is named as a salt.
Experimental Readout: furin enzyme pIC50

Compound: CC(=O)NCC1CCN(Cc2cc(Oc3ccc(N4CCN(CCc5nnn[nH]5)CC4)nc3)nc(-c3cc(Cl)cc(Cl)c3)c2)CC1 [Example 14, hydrochloride]
Target Under Test: Furin (108-574-Tev-Flag-His) enzyme (Homo sapiens, UniProt P09958)
Measured: 9.5

Compound: Cc1nc(N2CCN(C)CC2)ncc1Oc1nc(-c2cc(Cl)cc(Cl)c2)cc(CN2CCC(CC(=O)O)CC2)c1F
Target Under Test: Furin (108-574-Tev-Flag-His) enzyme (Homo sapiens, UniProt P09958)
Measured: 9.6

Compound: CC(=O)NCC1CCN(Cc2cc(Oc3ccc(N4CCN(C(C)CCS(C)(=O)=O)CC4)nc3)nc(-c3cc(Cl)cc(Cl)c3)c2)CC1 (stereo not drawn)
Target Under Test: Furin (108-574-Tev-Flag-His) enzyme (Homo sapiens, UniProt P09958)
Measured: 9

Compound: CC(=O)NCC1CCN(Cc2cc(Oc3cnc(N4CCN(CCS(N)(=O)=O)CC4)nc3)nc(-c3cc(Cl)cc(Cl)c3)c2)CC1
Target Under Test: Furin (108-574-Tev-Flag-His) enzyme (Homo sapiens, UniProt P09958)
Measured: 9.4

Compound: CN1CCN(c2ncc(Oc3cc(CN4CC5CC(CC(=O)O)CC5C4)cc(-c4cc(Cl)cc(Cl)c4)n3)cn2)CC1 (stereo not drawn)
Target Under Test: Furin (108-574-Tev-Flag-His) enzyme (Homo sapiens, UniProt P09958)
Measured: 8.2

Compound: Cc1c(CN2CCC(CC(=O)O)CC2)cc(-c2cc(Cl)cc(Cl)c2)nc1Oc1cnc(N2CCN(C)CC2)cn1
Target Under Test: Furin (108-574-Tev-Flag-His) enzyme (Homo sapiens, UniProt P09958)
Measured: 8.7

Reference source: patent US11773078B2
